The values you see were collected from patent US5414001A.

# Test system: panel of >20 human tumor cell lines
# assay comment: In vitro tumor panel evaluation, Sulforhodamine B (SRB) cytotoxicity assay
# Assay type: cell-based
# condition notes: Homo sapiens, 48 h, read-out: MAX IC50
reported property: IC50

>>> data_value("CC(CCC(C)NC1=CC2=[N+](C)CCc3c[nH]c(c32)C1=O)NC1=CC2=[N+](C)CCc3c[nH]c(c32)C1=O (racemic)")
"50 µg/mL"
>>> data_value("C[N+]1=C2C=C(N)C(=O)c3[nH]cc(c32)CC1")
"10 µg/mL"
>>> data_value("Cn1cc2c3c1C(=O)C(N)=CC3=[N+](C)CC2")
"5.7 µg/mL"
>>> data_value("Cn1cc2c3c1C(=O)C(N)=CC3=[N+](Cc1ccccc1)CC2")
"10 µg/mL"
>>> data_value("COc1cc([C@@H]2c3cc4c(cc3[C@@H](O[C@@H]3O[C@@H]5CO[C@@H](C)O[C@H]5[C@H](O)[C@H]3O)[C@H]3COC(=O)[C@H]23)OCO4)cc(OC)c1O [Etoposide, etoposide, reference compound]")
"27.9 µg/mL"

###

# System: MIP / SW620
# assay comment: SRB cytotoxicity ratio MIP/SW620 (MDR, P-glycoprotein resistance)
# Format: cell-based, human
# condition notes: human, mip/sw620 cells, 2880 min
Counter-ions that a name gives are not always drawn.
Classification field: enter 1 for MIP/SW620 IC50 ratio values not below 1, 0 for values below it.

>>> assigned_label("COc1cc([C@@H]2c3cc4c(cc3[C@@H](O[C@@H]3O[C@@H]5CO[C@@H](C)O[C@H]5[C@H](O)[C@H]3O)[C@H]3COC(=O)[C@H]23)OCO4)cc(OC)c1O [Etoposide, etoposide, reference compound]")
1
>>> assigned_label("Cn1cc2c3c1C(=O)C(N)=C(Br)C3=NCC2 [Example 14]")
1
>>> assigned_label("O=C1C(NC2Cc3cc(Br)c(O)cc3S2)=CC2=NCCc3c[nH]c1c32 (centres unmarked) [Example 6, trifluoroacetate]")
1
>>> assigned_label("Cn1cc2c3c1C(=O)C(N)=CC3=[N+](Cc1ccccc1)CC2 [Example 32]")
0
>>> assigned_label("Cn1cc2c3c1C(=O)C(N)=CC3=[N+](C)CC2 [Example 29]")
1

###

# Test system: MIP / SW620
# assay comment: SRB cytotoxicity ratio MIP/SW620 (MDR, P-glycoprotein resistance)
# Type: cell-based, human
# condition notes: IC50 resistant / IC50 sensitive cell line; MDR (pglycoprotein) resistance; 2880 min
reported property: MIP/SW620 IC50 ratio

>>> data_value("C[N+]1=C2C=C(N)C(=O)c3c2c(cn3CCC#N)CC1")
2.0
>>> data_value("Cn1cc2ccnc3c2c1C(=O)C(N)=C3.O=C(O)C(F)(F)F")
0.9
>>> data_value("CCCCCCCCN(CCCCCCCC)C1=CC2=[N+](C)CCc3c[nH]c(c32)C1=O")
9.0
>>> data_value("C[N+]1=C2C(Br)=C(N)C(=O)c3[nH]c(Br)c(c32)CC1")
0.9
>>> data_value("C[N+]1=C2C(Cl)=C(N)C(=O)c3[nH]cc(c32)CC1")
0.7

###

# Test system: CaCo2 / CX1
# condition notes: human, Caco-2, 48 h
reported property: CaCO2/CX1 IC50 ratio

>>> data_value("C[N+]1=C2C(Br)=C(N)C(=O)c3[nH]c(Br)c(c32)CC1")
0.7
>>> data_value("C[N+]1=C2C=C(N)C(=O)c3c2c(cn3Cc2cccc(Cl)c2)CC1")
0.8
>>> data_value("Cn1cc2c3c1C(=O)C(N)=C(Br)C3=NCC2")
0.8
>>> data_value("COc1cccc(Cn2cc3c4c2C(=O)C(N)=CC4=[N+](C)CC3)c1")
1.0
>>> data_value("COc1cc([C@@H]2c3cc4c(cc3[C@@H](O[C@@H]3O[C@@H]5CO[C@@H](C)O[C@H]5[C@H](O)[C@H]3O)[C@H]3COC(=O)[C@H]23)OCO4)cc(OC)c1O [Etoposide, etoposide, reference compound]")
4.2
>>> data_value("COC(=O)CCNC1=CC2=[N+](C)CCc3cn(CCC(=O)OC)c(c32)C1=O")
15.1
>>> data_value("CN1CCc2cn(C)c3c2C1=CC(=O)C3=O")
0.8
>>> data_value("C[N+]1=C2C=C(NCc3ccoc3)C(=O)c3[nH]cc(c32)CC1.O=C([O-])C(F)(F)F")
19.8
